Data origin: ChEMBL document CHEMBL1147287

- system: DNA topoisomerase 2-alpha (Homo sapiens) (UniProt P11388)
- Sequence (P11388 whole entry): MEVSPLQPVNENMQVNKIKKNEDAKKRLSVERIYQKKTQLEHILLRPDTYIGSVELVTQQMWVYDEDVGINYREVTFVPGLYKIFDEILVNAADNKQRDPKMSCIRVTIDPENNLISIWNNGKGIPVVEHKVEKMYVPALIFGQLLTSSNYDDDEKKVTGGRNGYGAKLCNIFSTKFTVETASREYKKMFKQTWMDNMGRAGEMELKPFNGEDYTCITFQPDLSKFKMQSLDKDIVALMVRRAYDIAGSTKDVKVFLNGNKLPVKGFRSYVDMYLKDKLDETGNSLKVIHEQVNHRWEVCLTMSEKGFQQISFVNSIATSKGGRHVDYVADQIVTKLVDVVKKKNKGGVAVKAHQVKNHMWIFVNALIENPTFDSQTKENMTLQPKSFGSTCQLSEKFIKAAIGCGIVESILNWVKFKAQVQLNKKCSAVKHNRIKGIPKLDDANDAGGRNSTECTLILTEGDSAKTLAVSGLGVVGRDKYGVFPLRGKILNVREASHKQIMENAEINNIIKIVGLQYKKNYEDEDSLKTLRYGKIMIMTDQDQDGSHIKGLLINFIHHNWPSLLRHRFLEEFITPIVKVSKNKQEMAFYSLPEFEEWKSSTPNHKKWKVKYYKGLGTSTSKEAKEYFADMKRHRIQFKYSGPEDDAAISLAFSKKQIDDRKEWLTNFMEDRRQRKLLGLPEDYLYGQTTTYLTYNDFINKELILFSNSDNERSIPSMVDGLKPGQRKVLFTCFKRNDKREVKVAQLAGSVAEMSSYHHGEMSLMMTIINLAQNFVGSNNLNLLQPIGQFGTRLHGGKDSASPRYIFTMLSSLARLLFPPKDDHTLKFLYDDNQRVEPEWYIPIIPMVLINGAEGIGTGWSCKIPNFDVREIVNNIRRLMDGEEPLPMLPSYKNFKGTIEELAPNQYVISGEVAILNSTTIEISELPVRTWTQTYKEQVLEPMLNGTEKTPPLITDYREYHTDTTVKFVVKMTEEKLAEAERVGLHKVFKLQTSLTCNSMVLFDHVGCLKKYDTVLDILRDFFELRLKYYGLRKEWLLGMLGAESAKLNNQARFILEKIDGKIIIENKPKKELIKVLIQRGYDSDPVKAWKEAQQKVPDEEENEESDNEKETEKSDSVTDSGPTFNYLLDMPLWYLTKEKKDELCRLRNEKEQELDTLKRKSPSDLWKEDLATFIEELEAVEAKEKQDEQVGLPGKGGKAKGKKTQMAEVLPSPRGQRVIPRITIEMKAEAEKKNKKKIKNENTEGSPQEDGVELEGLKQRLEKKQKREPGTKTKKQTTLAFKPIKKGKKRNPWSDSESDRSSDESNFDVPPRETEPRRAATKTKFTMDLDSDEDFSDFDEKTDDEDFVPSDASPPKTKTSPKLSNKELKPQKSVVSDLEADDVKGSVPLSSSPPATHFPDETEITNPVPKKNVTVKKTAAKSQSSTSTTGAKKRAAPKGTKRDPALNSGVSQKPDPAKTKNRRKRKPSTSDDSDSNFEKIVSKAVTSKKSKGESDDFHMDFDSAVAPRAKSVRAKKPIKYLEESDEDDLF
- assayMethodText: Inhibition of DNA topoisomerase 2 in human KB cells assessed as enzyme-[methyl-3H]thymidine-labeled DNA complex formation at 10 uM after 1 hr by K-SDS precipitation assay
- Format: cell-based
metric: inhibition (%)
Hi! Could you send only the number? It should be in %, unit omitted.

>>> quantitativereadout("COc1cc([C@@H]2c3cc4c(cc3[C@@H](O)[C@H]3COC(=O)[C@H]23)OCO4)cc(OC)c1O [4'-DEMETHYLEPIPODOPHYLLOTOXIN]")
42.2
>>> quantitativereadout("COc1cc([C@@H]2c3cc4c(cc3[C@@H](NCCO)[C@H]3COC(=O)[C@H]23)OCO4)cc(OC)c1O")
121
>>> quantitativereadout("COc1cc([C@@H]2c3cc4c(cc3[C@@H](NCCCO)[C@H]3COC(=O)[C@H]23)OCO4)cc(OC)c1O")
89.2

Below: the item to evaluate.
In: Consider the compound "COc1cc([C@@H]2c3cc4c(cc3[C@H](O)[C@H]3COC(=O)[C@H]23)OCO4)cc(OC)c1O" and give its measured inhibition.
Out: 3.3
